Target: androgen receptor LBD (Panvera) (Rattus norvegicus)
Construct: 5 pmol androgen receptor LBD (Panvera); purchased Panvera
Assay: Androgen Receptor Filtration Binding Assay (PANVERA)
Conditions: [3H] R1881 tracer 0.5 nM; read-out: IC50 (nM), Androgen Receptor Binding (Panvera)
Entries and their log10 IC50 values follow.
endpointName: log10 IC50 (log10 of the value in nM)

molecule | log10 IC50
COC(=O)c1ccc2c(c1)cc(C(C)(O)CSc1ccc(F)cc1)n2S(C)(=O)=O (centres unmarked) | 3.93
CC(O)(CSC1CCCCC1)c1cc2cc(C#N)c(C(F)(F)F)cc2[nH]1 (centres unmarked) | 4.57
CC(O)(COC(=O)c1ccccc1)c1cc2cc([N+](=O)[O-])c(C(F)(F)F)cc2[nH]1 (centres unmarked) | 2.91
CN(C)c1ccc(C(=O)OCC(C)(O)c2cc3cc([N+](=O)[O-])c(C(F)(F)F)cc3[nH]2)cc1 (centres unmarked) | 3.48
CC(O)(COC(=O)c1ccc(Cl)cc1)c1cc2cc(Cl)c(C(F)(F)F)cc2[nH]1 (racemic) | 2.51
CC(O)(COC(=O)c1ccccn1)c1cc2cc([N+](=O)[O-])c(C(F)(F)F)cc2[nH]1 (centres unmarked) | 4.28
CC(O)(CSc1ccc(Cl)cc1)c1cc2ccccc2n1S(C)(=O)=O (centres unmarked) | 3.71

---

Target: androgen receptor (AdEasy+rAR, COS-7 cells) (Rattus norvegicus, UniProt P15207)
Construct: expressed in transfected cells; host or cells: COS-7 cells transduced with adenovirus AdEasy+rAR
Test: COS-7 Whole-Cell Androgen Receptor Binding Assay, Adenovirus Transduction
Conditions: concentration of 3000 nM
Parameter: inhibition at 3 µM. Scope: all listed entries.
endpointName: inhibition at 3 µM (%)

compound | endpointResult
CCC(O)(CSCC(F)(F)F)c1cc2cc([N+](=O)[O-])c(C(F)(F)F)cc2[nH]1 (centres unmarked) | 92
CC(O)(CSc1ccc(O)cc1)c1cc2cc(Cl)c(C(F)(F)F)cc2[nH]1 (centres unmarked) | 86
CCSCC(C)(O)c1cc2cc(C#N)c(C(F)(F)F)cc2[nH]1 (centres unmarked) | 61
COc1ccc(SCC(C)(O)c2cc3cc(Cl)c(C(F)(F)F)cc3[nH]2)cc1 (centres unmarked) | 84
CCCS(=O)(=O)CC(C)(O)c1cc2cc([N+](=O)[O-])c(C(F)(F)F)cc2[nH]1 (centres unmarked) | 90
CCSCC(C)(O)c1[nH]c2cc(C(F)(F)F)c([N+](=O)[O-])cc2c1C#N (single isomer, unassigned) [Compound 247] | 90
CCC(O)(CS(=O)(=O)CC(F)(F)F)c1cc2cc([N+](=O)[O-])c(C(F)(F)F)cc2[nH]1 (centres unmarked) | 65
CCSCC(C)(O)c1cc2cc([N+](=O)[O-])c(C(F)(F)F)cc2n1C (single isomer, unassigned) [Compound 231] | 73

---

Target: androgen receptor (rat ventral prostate cytosol) (Rattus norvegicus, UniProt P15207)
Construct: from tissue; host or cells: ventral prostate cytosol of castrated male Sprague Dawley or Wistar rats
Sequence (P15207 1-902): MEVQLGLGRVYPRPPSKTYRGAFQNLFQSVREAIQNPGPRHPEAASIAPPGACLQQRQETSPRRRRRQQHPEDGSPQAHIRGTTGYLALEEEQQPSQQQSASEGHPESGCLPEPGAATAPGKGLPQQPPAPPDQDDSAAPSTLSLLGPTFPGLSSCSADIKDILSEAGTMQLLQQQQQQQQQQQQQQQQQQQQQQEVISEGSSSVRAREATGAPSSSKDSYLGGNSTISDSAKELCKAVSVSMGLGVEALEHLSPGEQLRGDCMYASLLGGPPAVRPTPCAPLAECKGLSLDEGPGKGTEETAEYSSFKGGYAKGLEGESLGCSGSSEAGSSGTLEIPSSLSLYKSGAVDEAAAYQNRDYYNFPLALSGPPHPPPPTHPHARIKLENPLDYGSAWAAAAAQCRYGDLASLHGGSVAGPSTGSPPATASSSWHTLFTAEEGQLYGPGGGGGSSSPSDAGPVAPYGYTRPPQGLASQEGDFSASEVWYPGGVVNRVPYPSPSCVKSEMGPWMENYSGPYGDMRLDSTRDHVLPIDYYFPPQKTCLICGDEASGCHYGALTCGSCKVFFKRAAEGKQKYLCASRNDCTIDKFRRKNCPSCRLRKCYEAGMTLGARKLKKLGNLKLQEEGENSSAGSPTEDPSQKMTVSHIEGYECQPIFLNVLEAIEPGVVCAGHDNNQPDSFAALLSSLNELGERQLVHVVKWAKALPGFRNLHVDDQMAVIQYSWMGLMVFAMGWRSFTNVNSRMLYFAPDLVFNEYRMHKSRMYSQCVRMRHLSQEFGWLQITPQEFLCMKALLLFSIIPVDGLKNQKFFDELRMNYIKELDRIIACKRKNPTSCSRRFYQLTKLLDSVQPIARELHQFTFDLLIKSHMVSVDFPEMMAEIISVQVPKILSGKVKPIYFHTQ
Assay: Androgen Receptor Binding Using Rat Ventral Prostate Cytosol
Conditions: Concentration 3000 nM
// reported % Inhibition, Androgen Receptor Binding (Rat Cytosol) per item
endpointName: % Inhibition, Androgen Receptor Binding (Rat Cytosol)

compound | targetOrSystem | endpointResult
CC(C)SC(C)(CO)c1cc2cc([N+](=O)[O-])c(C(F)(F)F)cc2[nH]1 (racemic) | androgen receptor (rat ventral prostate cytosol) (Rattus norvegicus, UniProt P15207) | −3.3%
CC(O)(C[S+]([O-])Cc1ccccc1)c1cc2cc([N+](=O)[O-])c(C(F)(F)F)cc2[nH]1 (mixture of isomers) | androgen receptor (rat ventral prostate cytosol) (Rattus norvegicus, UniProt P15207) | 39%
CC(O)(CS(=O)(=O)Cc1ccccc1)c1cc2cc([N+](=O)[O-])c(C(F)(F)F)cc2[nH]1 (racemic) | androgen receptor (rat ventral prostate cytosol) (Rattus norvegicus, UniProt P15207) | 0.69%
CC(O)(Sc1ccc(N)cc1)c1cc2cc([N+](=O)[O-])c(C(F)(F)F)cc2[nH]1 (racemic) | androgen receptor (rat ventral prostate cytosol) (Rattus norvegicus, UniProt P15207) | 12.4%
COc1ccc(SCC(C)(O)c2cc3cc(Cl)c(C(F)(F)F)cc3n2S(C)(=O)=O)cc1 (racemic) | androgen receptor (rat ventral prostate cytosol) (Rattus norvegicus, UniProt P15207) | 32.55%
COc1ccc(S(=O)(=O)CC(C)(O)c2cc3cc(Cl)c(C(F)(F)F)cc3[nH]2)cc1 (racemic) | androgen receptor (rat ventral prostate cytosol) (Rattus norvegicus, UniProt P15207) | 39.5%
CN(C)c1ccc(S(=O)(=O)CC(C)(O)c2cc3cc(Cl)c(C(F)(F)F)cc3[nH]2)cc1 (racemic) | androgen receptor (rat ventral prostate cytosol) (Rattus norvegicus, UniProt P15207) | −30%
CC(O)(Sc1ccc(N)cc1)c1cc2cc(Cl)c(C(F)(F)F)cc2[nH]1 (racemic) | androgen receptor (rat ventral prostate cytosol) (Rattus norvegicus, UniProt P15207) | 93.5%

---

Molecular target: androgen receptor (AdEasy+rAR, L929 cells) (Rattus norvegicus)
Construct: expressed in transfected cells; host or cells: L929 cells transduced with adenovirus AdEasy+rAR
Sequence (P15207 1-902): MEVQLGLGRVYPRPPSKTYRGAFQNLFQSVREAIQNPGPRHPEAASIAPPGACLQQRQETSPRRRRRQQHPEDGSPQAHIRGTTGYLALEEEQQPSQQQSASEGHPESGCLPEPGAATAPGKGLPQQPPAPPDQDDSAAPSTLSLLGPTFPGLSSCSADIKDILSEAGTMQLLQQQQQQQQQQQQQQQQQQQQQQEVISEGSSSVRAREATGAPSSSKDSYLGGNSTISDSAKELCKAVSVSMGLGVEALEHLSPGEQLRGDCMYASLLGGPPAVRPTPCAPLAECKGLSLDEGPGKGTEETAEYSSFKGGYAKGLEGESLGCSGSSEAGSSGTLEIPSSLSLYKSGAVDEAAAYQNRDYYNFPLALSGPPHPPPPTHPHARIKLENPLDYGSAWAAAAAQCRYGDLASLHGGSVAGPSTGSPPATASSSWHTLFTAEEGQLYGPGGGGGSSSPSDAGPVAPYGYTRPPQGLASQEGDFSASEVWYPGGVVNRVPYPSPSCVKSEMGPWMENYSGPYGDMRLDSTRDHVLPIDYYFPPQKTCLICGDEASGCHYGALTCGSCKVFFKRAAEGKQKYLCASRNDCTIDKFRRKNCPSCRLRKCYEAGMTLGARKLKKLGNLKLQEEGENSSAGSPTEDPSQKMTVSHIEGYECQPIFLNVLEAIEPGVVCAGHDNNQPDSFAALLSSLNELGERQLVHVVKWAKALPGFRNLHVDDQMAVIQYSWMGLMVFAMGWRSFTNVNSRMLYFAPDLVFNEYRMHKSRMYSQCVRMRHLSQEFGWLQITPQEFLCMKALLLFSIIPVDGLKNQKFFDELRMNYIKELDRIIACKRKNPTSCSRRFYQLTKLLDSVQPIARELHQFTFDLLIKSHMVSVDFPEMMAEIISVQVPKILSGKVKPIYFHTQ
Test: L929 Androgen Receptor Functional Assay, Adenovirus Transduction
Format: cell-based
Details: L929, antagonist testing with R1881, 3000 nM
# inhibition at 3 µM values compiled below

compound | measurementUnit | inhibition at 3 µM
CC(O)(CSC1CCCC1)c1cc2cc([N+](=O)[O-])c(C(F)(F)F)cc2[nH]1 (stereo not shown) [Compound 173] | % | 40
CCC(O)(CS(=O)(=O)CC(F)(F)F)c1cc2cc([N+](=O)[O-])c(C(F)(F)F)cc2[nH]1 (stereo not shown) [Compound 191] | % | -6
CC(O)(CSc1ccc(C(=O)O)cc1)c1cc2cc(Cl)c(C(F)(F)F)cc2[nH]1 (stereo not shown) [Compound 133] | % | 19
CC(O)(CSCC(F)(F)F)c1cc2cc(Cl)c(C(F)(F)F)cc2[nH]1 (stereo not shown) [Compound 190] | % | 97
